Target: T1, human C-KIT-Fc (human, UniProt P10721 26-524)
T1 construct: also called biotinylated human C-KIT-Fc; not shown: Fc part not described
Assay: direct ELISA;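 further: Plate-coated C-KIT-Fc (1 µg/ml) probed with antibodies for 1 hr, bound IgG detected via anti-human kappa-HRP and TMB, absorbance measured at 450 nm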
measurement type: binding result

MH5.9 (antibody, IgG1, V domains shown, IgG1) VH: QVQLVQSGAEVKKPGASVKVSCKASGYTFTDHYMNWVRQAPGQGLEWMGRIYPGAGNTYYAQKFQGRVTMTRDTSTSTVYMELSSLRSEDTAVYYCARGVWYFDTWGQGTLVTVSS VL: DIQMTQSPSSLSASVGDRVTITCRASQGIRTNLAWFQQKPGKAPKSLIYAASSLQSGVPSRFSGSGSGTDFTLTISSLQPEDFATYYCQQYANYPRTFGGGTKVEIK
binds
MH5.5 (antibody, IgG1, V domains shown, IgG1) VH: QVQLVQSGAEVKKPGASVKVSCKASGYTFTDHYMNWVRQAPGQGLEWMGRIYPGTGNTYYAQKFQGRVTMTRDTSTSTVYMELSSLRSEDTAVYYCARGVWYFDTWGQGTLVTVSS VL: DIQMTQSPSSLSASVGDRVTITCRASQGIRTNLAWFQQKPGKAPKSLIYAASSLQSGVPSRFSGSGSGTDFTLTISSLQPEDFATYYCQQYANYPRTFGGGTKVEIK
binds
TTP3 (antibody, IgG1, V domains shown, IgG1) VH: QVQLVQSGAEVKKPGASVKVSCKASGYTFTDYYMNWVRQAPGQGLEWMGRIYPGSGNTYYAQKFQGRVTMTRDTSTSTVYMELSSLRSEDTAVYYCARGVYYLDYWGQGTLVTVSS VL: DIQMTQSPSSLSASVGDRVTITCRASQGVRTNLAWFQQKPGKAPKSLIYSASSLQSGVPSRFSGSGSGTDFTLTISSLQPEDFATYYCQQYNAYPKTFGGGTKVEIK
binds
